meta.source: patent US8198279B2

For each of the compounds below, state its GI50.
- Test system: WM266.4 melanoma cells
- run-description: SRB Cell Proliferation Assay (SRB GI50)
- Assay type: cell-based
- condition: Homo sapiens, WM 266-4, 144 h, 6 days growth

Can you share its GI50? I mean this compound: CC(C)(C)c1cc(NC(=O)Nc2cccc(Oc3ccnc4ncc(=O)[nH]c34)c2)n(-c2ccccc2)n1 [AA-076]
1 to 10 µM

Also need C=CCn1nc(C(C)(C)C)cc1NC(=O)Nc1ccc(Oc2ccnc3[nH]c(=O)cnc23)cc1F [AA-095] , thanks.
1 to 10 µM

Also need O=C(Nc1ccc(Oc2ccnc3[nH]c(=O)cnc23)cc1F)Nc1cc(C(F)(F)F)ccc1Oc1cccnc1 [AA-093] , thanks.
1 to 10 µM
